Several publications report IC50 on Tyrosine-protein kinase JAK1 (Homo sapiens, UniProt P23458); those values are gathered here.

-- ask Look up IC50 with Tyrosine-protein kinase JAK1 (Homo sapiens, UniProt P23458) for this compound: CN(c1ncnc2[nH]ccc12)C1CC2(C1)CN(C(=O)c1ccc(C3CC3)cc1)C2
-- reply 0.01 to 0.1 µM

-- ask Look up IC50 with Tyrosine-protein kinase JAK1 (Homo sapiens, UniProt P23458) for this compound: N#Cc1ccc(N2CCC(Nc3nc(Nc4ccc5c(c4)ncn5CC4CC4)ncc3Cl)CC2)nn1
-- reply 0.0004 µM

-- ask Fill in the recorded IC50 for this compound, with Tyrosine-protein kinase JAK1 (Homo sapiens, UniProt P23458) as test system: O=C(NCC(F)(F)F)Nc1cccc2c(-c3ccnc(NC(=O)C4CC4)c3)c[nH]c12
-- reply < 0.1 µM

-- ask Test system Tyrosine-protein kinase JAK1 (Homo sapiens, UniProt P23458); read-out IC50; what value for Cc1ccc(C(=O)Nc2cccc(C(F)(F)F)c2)cc1-c1ccc2c(c1)[nH]c1ncncc12 ?
-- reply ≤ 0.5 µM

-- ask IC50 of O=C1NCCCCOCc2cc(ccc2OCC2Cc3ccccc3O2)Nc2nccc(n2)-c2ccc1cc2[N+](=O)[O-] (centres unmarked) on Tyrosine-protein kinase JAK1 (Homo sapiens, UniProt P23458)?
-- reply 1 to 10 µM

-- ask Param readout = IC50; param system = Tyrosine-protein kinase JAK1 (Homo sapiens, UniProt P23458); param query = CN(c1ncnc2[nH]ccc12)C1CCC2(CC1)CCN(C(=O)Nc1ccn(C)n1)CC2 ; response: value
-- reply 0.1 to 1 µM

-- ask Short answer please: IC50, Tyrosine-protein kinase JAK1 (Homo sapiens, UniProt P23458), entry C[C@@H](O)c1nc2cnc3ccsc3c2n1[C@H]1CC[C@H](CC#N)[C@H](N)C1
-- reply ≤ 1 µM

-- ask Param readout= IC50; system= Tyrosine-protein kinase JAK1 (Homo sapiens, UniProt P23458); entry= CNS(=O)(=O)CCNC(=O)c1noc2c1CN(c1ncnc3[nH]ccc13)CC2 ; returns value.
-- reply < 0.1 µM

###

IC50 for Tyrosine-protein kinase JAK1 (Homo sapiens, UniProt P23458), merged from several publications.

-- ask // lookup IC50 | system=Tyrosine-protein kinase JAK1 (Homo sapiens, UniProt P23458) | key= Cn1cc(-c2cc3nccn3c(-c3cnn(C4(CC#N)CN(CCC#N)C4)c3)n2)cn1
-- reply 100 to 1000 nM

-- ask Lookup: IC50 / Tyrosine-protein kinase JAK1 (Homo sapiens, UniProt P23458) / CC(C)(C#N)C1CCN(n2cnc3cnc4[nH]ccc4c32)CC1
-- reply 13.5 nM

-- ask Tell me reported IC50 for COC(=O)[C@H]1C[C@H](NC(=O)c2nn(C)c3c2CN(c2ncnc4[nH]ccc24)CC3)C1 , tested with Tyrosine-protein kinase JAK1 (Homo sapiens, UniProt P23458).
-- reply > 2000 nM

-- ask Form field - read-out: IC50; system: Tyrosine-protein kinase JAK1 (Homo sapiens, UniProt P23458); submitted item: Cc1cc(Nc2nc(N[C@@H]3C[C@H]4CC[C@@H](C3)N4CCC#N)nc3c(Cl)cccc23)n[nH]1
-- reply 3.36 nM

-- ask IC50 of O=C(Nc1nc2cccc(-c3ccc(C(=O)N4CCS(=O)(=O)CC4)cc3)n2n1)C1CC1 on Tyrosine-protein kinase JAK1 (Homo sapiens, UniProt P23458)?
-- reply 18.2 nM

-- ask Form field: IC50 recorded for Cn1cccc(C(=O)Nc2cccc3c2ccn3-c2ccnc(NC(=O)C3CC3)c2)c1=O with Tyrosine-protein kinase JAK1 (Homo sapiens, UniProt P23458) (enter value)
-- reply > 1000 nM

-- ask # returns recorded IC50 (system: Tyrosine-protein kinase JAK1 (Homo sapiens, UniProt P23458)) for CCN(C)Cc1cc(C(=O)N2CCC(N3CC(CC#N)(n4cc(-c5ncnc6[nH]ccc56)cn4)C3)CC2)nc(C(F)(F)F)n1
-- reply ≤ 5 nM

-- ask Form entry - test system: Tyrosine-protein kinase JAK1 (Homo sapiens, UniProt P23458); read-out: IC50; compound: Cc1ccc(NC(=O)c2cccc(F)c2)cc1-c1ccc2[nH]c3ncncc3c2c1
-- reply ≤ 500 nM
